target: HIV-1 YU-2 gp120 (HIV-1 (YU-2), UniProt P35961); test: SPR
# label = condition met if kon >= 70000 M⁻¹ s⁻¹ else condition not met

Fab m18 S52A (LCDR2) (Fab, V domains shown) VH: VQLLESGPGVVKPSETLSLTCTVSGASVNNYYWTWVRQPPGKGLEWIGNVYDSGDTNYNPSLSSRLSLSMDTSKNQFSLRLSSVTAADTATYYCARYHRHFIRGPLSFDYWGRGTLVTVSS VL: LQMTQSPSFLSASVGDRVSITCRASQDIQKFLAWYQLTPGDAPKLLMYSAATLQSGVPSRFSGSGSGTEFTLTISGLQPEDFATYYCQHLKRYPYTFGQGTKLEIS | condition not met

Answer whether kon of Fab m18 D28A (LCDR1) (Fab, V domains shown) VH: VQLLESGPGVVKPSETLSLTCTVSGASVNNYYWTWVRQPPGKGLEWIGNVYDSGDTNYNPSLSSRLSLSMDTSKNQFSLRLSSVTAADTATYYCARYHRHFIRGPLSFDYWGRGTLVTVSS VL: LQMTQSPSFLSASVGDRVSITCRASQAIQKFLAWYQLTPGDAPKLLMYSASTLQSGVPSRFSGSGSGTEFTLTISGLQPEDFATYYCQHLKRYPYTFGQGTKLEIS is greater than or equal to 70000 M⁻¹ s⁻¹.
condition not met

hey, is kon for this one >= 70000 M⁻¹ s⁻¹? Fab m18 T53A (LCDR2) (Fab, V domains shown) VH: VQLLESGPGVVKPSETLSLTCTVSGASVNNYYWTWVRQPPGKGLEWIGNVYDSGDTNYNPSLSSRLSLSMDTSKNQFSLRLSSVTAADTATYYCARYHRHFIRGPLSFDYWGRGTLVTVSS VL: LQMTQSPSFLSASVGDRVSITCRASQDIQKFLAWYQLTPGDAPKLLMYSASALQSGVPSRFSGSGSGTEFTLTISGLQPEDFATYYCQHLKRYPYTFGQGTKLEIS
condition not met

Does the reported kon for Fab m18 T57A (HCDR2) (Fab, V domains shown) VH: VQLLESGPGVVKPSETLSLTCTVSGASVNNYYWTWVRQPPGKGLEWIGNVYDSGDANYNPSLSSRLSLSMDTSKNQFSLRLSSVTAADTATYYCARYHRHFIRGPLSFDYWGRGTLVTVSS VL: LQMTQSPSFLSASVGDRVSITCRASQDIQKFLAWYQLTPGDAPKLLMYSASTLQSGVPSRFSGSGSGTEFTLTISGLQPEDFATYYCQHLKRYPYTFGQGTKLEIS fall at or above the 70000 M⁻¹ s⁻¹ mark?
condition met
